system: Ps. aeruginosa DY-2; test: MIC by agar dilution, Ps. aeruginosa DY-2; type: cell-based; settings: Pseudomonas aeruginosa, DY2, 17 h; Ps. aeruginosa DY-2; agar dilution, Mueller-Hinton agar; read-out: Minimal Inhibitory Concentration (MIC)

chem.smiles: CO/N=C(\C(=O)N[C@@H]1C(=O)N2C(C(=O)[O-])=C(C[n+]3ccn4cccc4c3C)CS[C@H]12)c1nc(N)sc1Cl
result.units: µg/mL
MIC: 3.13

chem.smiles: CO/N=C(\C(=O)N[C@@H]1C(=O)N2C(C(=O)[O-])=C(C[n+]3ccn4c(CO)ccc4c3C)CS[C@H]12)c1nc(N)sc1Cl
result.units: µg/mL
MIC: 3.13

chem.smiles: CO/N=C(\C(=O)N[C@@H]1C(=O)N2C(C(=O)[O-])=C(C[n+]3ccn4c(CO)ccc4c3C)CS[C@H]12)c1csc(N)n1
result.units: µg/mL
MIC: 0.25
